- target-entity: human muscarinic M4 receptor (Homo sapiens)
- Construct: expressed in transfected cells
- Sequence (P08173 whole entry): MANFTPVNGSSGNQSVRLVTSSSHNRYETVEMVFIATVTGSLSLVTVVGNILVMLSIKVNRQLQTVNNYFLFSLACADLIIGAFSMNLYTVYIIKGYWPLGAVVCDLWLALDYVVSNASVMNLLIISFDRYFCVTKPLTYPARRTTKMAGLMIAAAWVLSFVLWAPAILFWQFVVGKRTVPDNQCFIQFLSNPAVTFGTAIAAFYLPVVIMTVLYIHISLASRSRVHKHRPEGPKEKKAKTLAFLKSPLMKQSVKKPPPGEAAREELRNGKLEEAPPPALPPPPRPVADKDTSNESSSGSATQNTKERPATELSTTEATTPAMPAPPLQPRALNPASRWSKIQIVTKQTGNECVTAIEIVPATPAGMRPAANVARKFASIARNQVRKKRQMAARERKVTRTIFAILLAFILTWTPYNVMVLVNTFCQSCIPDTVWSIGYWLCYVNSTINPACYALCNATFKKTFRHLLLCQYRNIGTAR
- assay-protocol: Alphascreen Surefire phospho-ERK1/2 functional assay, M4
- Assay type: cell-based
- measurement-parameters: CHO, read-out: % Emax cf. ACh, M4, CHO cells stably expressing human M4; relative to ACh
observation-type: Emax (%)
Numbers only, in %.

>>> value_observed("CCOC(=O)N1CCC2(CC(N3CCC(N4CC[C@@H](F)C4)CC3)C2)C1 (single isomer, unassigned) [2-98 Isomer 2]")
45
>>> value_observed("CCOC(=O)N1CCC2(CC(N3CCC([C@@H]4CCCN4C(=O)OC4CCC4)CC3)C2)C1 (single isomer, unassigned) [2-43 Isomer 2]")
47
>>> value_observed("CCOC(=O)N1CCC2(CC(N3CCC([C@@H]4CCCN4C(=O)OC)CC3)C2)C1 (single isomer, unassigned) [2-12 Isomer 2]")
57
>>> value_observed("CCOC(=O)N1CCC2(CC(N3CCC(N4CCCC4c4ccn[nH]4)CC3)C2)C1 (single isomer, unassigned) [2-126 Isomer 2]")
60
>>> value_observed("CCOC(=O)N1CCC2(CC(N3CCC(N4CCCC4=O)CC3)C2)C1 (single isomer, unassigned) [2-111 Isomer 2]")
62

Next item in the queue.
Input line: Form field: reported Emax of CCOC(=O)N1CCC2(CC(N3CCC(N4C(=O)OC[C@H]4CC)CC3)C2)C1 (single isomer, unassigned) [2-119 Isomer 2]
Output line: 84
